Test system: ovarian cancer cells with (OVCAR8, OVCAR4) or without (OVSAHO, CAOV3) MYC-HSF1 amplification
test-name: Epigenetic inhibitor drug screen, cell viability (Cell Titer Blue)
Assay type: cell-based
measurement-conditions: 10 uM, 48 hrs; average relative cell viability (vs 1% DMSO) of non-amplified cells (OVSAHO, CAOV3) minus that of MYC-HSF1 amplified cells (OVCAR8, OVCAR4); positive = greater response in amplified cells; 10 µM
Where a name gives a salt, the structure may show the parent alone.
Below, each entry is listed alongside its reported Non Amp - AMP (POC) 10 uM.
Give the value in POC but do not write POC after it.

| compound | readout-units | Non Amp - AMP (POC) 10 uM |
| --- | --- | --- |
| O=C(/C=C/c1ccc(CN(CCO)CCc2c[nH]c3ccccc23)cc1)NO [LAQ824, Dacinostat] | POC | 43.86 |
| Nc1nc2nc[nH]c2c(=S)[nH]1 [6-Thioguanine] | POC | 12.09 |
| C[C@]1(c2nc3c(C(N)=O)cccc3[nH]2)CCCN1 [ABT-888 (Veliparib), Veliparib] | POC | −1.058 |
| CC(/C=C/C(=O)NO)=C\[C@@H](C)C(=O)c1ccc(N(C)C)cc1 [Trichostatin A] | POC | 47.34 |
| CC(C)Oc1ccc(-c2c[nH]cc2CN(C)CCN)cc1 [MS023] | POC | −0.6323 |
| O=C(O)C(Cc1c[nH]c2ccccc12)N1C(=O)c2ccccc2C1=O (stereo not drawn) [RG108] | POC | 17.36 |
| CCOC(=O)CCNc1cc(N2CCc3ccccc3CC2)nc(-c2ccccn2)n1.Cl [GSK J4 HCl] | POC | −10.21 |
| CCN(c1cc(-c2ccc(CN3CCOCC3)cc2)cc(C(=O)NCc2c(C)cc(C)[nH]c2=O)c1C)C1CCOCC1 [EPZ6438] | POC | 8.683 |

In: Indicate its recorded Non Amp - AMP (POC) 10 uM; the compound in question is COc1cccc2c1C(=O)c1c(O)c3c(c(O)c1C2=O)C[C@@](O)(C(=O)CO)C[C@@H]3O[C@H]1C[C@H](N)[C@H](O)[C@H](C)O1 [Doxorubicin]
Out: 4.864

In: Name the recorded Non Amp - AMP (POC) 10 uM of the item N#CC[C@H](C1CCCC1)n1cc(-c2ncnc3[nH]ccc23)cn1 [Ruxolitinib phosphate] in your answer.
Out: 2.659

In: Identify the reported Non Amp - AMP (POC) 10 uM for the following entry. CN(C)Cc1c(C(=O)NCCOc2ccc(C(=O)NO)cc2)oc2ccccc12 [PCI 24781]
Out: 42.57

In: Entry O=C(O)c1ccnc(C(=O)O)c1 [2,4-Pyridinedicarboxylic Acid] needs its Non Amp - AMP (POC) 10 uM filled in; supply it.
Out: −1.887

In: Given the compound O=C(O)c1ccc(O)c2ncccc12 [IOX1] , write its reported Non Amp - AMP (POC) 10 uM.
Out: 11.45

In: For the compound Nc1ccc(S(=O)(=O)NCCc2ccccc2)cc1 [C-7280948] , give its reported Non Amp - AMP (POC) 10 uM.
Out: 13.45

In: Give me measured Non Amp - AMP (POC) 10 uM, please, for this compound: CCCc1cc2c(N3CCN(C4=NCC(C)(C)S4)CC3)ncnc2s1 [MI-2 (hydrochloride)]
Out: 6.017

In: Find the measured Non Amp - AMP (POC) 10 uM of CC(C)C(=O)SCCCCCCC(=O)Nc1nc(-c2ccccc2)cs1 [NCH-51] and report it.
Out: 27.52

In: Complete the entry with Non Amp - AMP (POC) 10 uM for C[C@@H]1CCN(C(=O)CC#N)C[C@@H]1N(C)c1ncnc2[nH]ccc12 [Tofacitinib (CP-690550, Tasocitinib), Tofacitinib]
Out: −2.781

In: Please give the documented Non Amp - AMP (POC) 10 uM of Fc1cc(-c2cccc3ncc(-c4cnn(C5CCNCC5)c4)nc23)cc(F)c1CN1CCOCC1 [NVP-BSK805 2HCl]
Out: −12.67
